assayed.target: human CD46 expressed on 293 cells (human) (UniProt P15529)
assay.name: FACS, 293 cells expressing human CD46, pH 6.0
Below, each entry is listed alongside its reported EC50.
Reply numerically in mg/L, unit not repeated.

| binder | obs.value |
| --- | --- |
| Benchmark (BM) BA-133-00-01 (antibody, V domains shown) VH: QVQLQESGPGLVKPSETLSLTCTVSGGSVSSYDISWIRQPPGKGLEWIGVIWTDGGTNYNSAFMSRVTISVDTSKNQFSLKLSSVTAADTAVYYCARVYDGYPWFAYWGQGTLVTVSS VL: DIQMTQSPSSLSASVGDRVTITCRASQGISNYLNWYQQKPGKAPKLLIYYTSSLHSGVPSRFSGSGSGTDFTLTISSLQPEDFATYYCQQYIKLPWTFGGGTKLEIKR | 0.147 |

Lab note: next binder to report on.
So what's the measured EC50 for this one? BAP133-2-02-12 (antibody, V domains shown) VH: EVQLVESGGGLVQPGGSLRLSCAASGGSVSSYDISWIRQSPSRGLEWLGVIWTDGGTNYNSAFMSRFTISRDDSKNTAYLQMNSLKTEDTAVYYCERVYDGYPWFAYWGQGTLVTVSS VL: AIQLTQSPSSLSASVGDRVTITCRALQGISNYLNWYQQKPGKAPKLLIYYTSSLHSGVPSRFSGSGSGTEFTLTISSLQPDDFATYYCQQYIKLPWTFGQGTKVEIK 0.676

Entry source: patent US20230242662A1
